Listed here are sequences together with their documented phosphorylation enrichment.
# target_desc: Fes (UniProt P07332)
# Sequence (P07332 whole entry, looked up): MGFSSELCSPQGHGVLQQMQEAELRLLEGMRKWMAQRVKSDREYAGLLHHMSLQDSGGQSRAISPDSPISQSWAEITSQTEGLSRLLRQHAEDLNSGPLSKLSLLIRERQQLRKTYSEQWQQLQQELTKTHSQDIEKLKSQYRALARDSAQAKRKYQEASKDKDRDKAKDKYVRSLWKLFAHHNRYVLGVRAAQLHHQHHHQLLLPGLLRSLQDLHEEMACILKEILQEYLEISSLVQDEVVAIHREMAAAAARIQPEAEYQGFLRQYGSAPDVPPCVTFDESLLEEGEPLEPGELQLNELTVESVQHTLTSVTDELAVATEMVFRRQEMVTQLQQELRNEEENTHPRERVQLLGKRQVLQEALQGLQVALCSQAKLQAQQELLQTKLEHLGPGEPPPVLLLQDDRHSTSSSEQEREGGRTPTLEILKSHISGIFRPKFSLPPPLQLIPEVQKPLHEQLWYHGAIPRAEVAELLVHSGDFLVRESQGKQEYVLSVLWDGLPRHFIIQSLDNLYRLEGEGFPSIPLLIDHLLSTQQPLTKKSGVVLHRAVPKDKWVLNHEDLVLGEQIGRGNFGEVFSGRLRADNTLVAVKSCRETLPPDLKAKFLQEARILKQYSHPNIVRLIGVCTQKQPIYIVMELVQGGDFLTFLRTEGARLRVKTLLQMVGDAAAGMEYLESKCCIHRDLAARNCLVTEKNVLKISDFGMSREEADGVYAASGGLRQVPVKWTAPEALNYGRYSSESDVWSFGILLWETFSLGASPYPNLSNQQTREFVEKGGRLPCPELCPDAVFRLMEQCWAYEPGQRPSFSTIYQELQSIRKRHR
# assay_remarks: phosphorylation enrichment, bacterial display (enrichment ratio); higher = better substrate or ligand; peptides without Tyr show the background;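 note: 11-residue human phosphosite peptides and single-mutation variants displayed on the E. coli surface, counted by deep sequencing, each peptide's frequency after selection divided by its frequency in the unselected input library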;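 note: frequency after pTyr selection over input frequency; kinase dosed for 20-30% of maximal phosphorylation in three min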
Write no unit; give the number alone.

Use these answered entries as a reference point.
QMQNPYSRHSS [MUC13_Y501] = 0.584
GIVEDYRPTFF [ACVRL1_Y421_P424T_YF] = 1.04
GVLKEYGVKVL [CPS1_Y529] = 0.642
ISDNACQYMLT [MYH7_Y162_Y162C] = 1.05
TVLGEYALPKG [CYP24A1_Y407] = 0.621
EKRDAYVSCLN [GSR_Y150_R153C] = 1.1
VIKSSYQVAKA [CPT1B_Y534_E531K] = 0.749
PLQKTYNYNML [SLC4A1_Y553_V557M] = 1.01
EQKKYYNAMKK [SCN5A_Y1495] = 0.649

Could you now look at the following sequence, please?
// query Please report the recorded phosphorylation enrichment for GKANRYFSPNF [PTEN_Y336_D331G] .
// result 0.612

###

# target_desc: EPHB2 (UniProt P29323)
# Sequence (P29323 whole entry, looked up): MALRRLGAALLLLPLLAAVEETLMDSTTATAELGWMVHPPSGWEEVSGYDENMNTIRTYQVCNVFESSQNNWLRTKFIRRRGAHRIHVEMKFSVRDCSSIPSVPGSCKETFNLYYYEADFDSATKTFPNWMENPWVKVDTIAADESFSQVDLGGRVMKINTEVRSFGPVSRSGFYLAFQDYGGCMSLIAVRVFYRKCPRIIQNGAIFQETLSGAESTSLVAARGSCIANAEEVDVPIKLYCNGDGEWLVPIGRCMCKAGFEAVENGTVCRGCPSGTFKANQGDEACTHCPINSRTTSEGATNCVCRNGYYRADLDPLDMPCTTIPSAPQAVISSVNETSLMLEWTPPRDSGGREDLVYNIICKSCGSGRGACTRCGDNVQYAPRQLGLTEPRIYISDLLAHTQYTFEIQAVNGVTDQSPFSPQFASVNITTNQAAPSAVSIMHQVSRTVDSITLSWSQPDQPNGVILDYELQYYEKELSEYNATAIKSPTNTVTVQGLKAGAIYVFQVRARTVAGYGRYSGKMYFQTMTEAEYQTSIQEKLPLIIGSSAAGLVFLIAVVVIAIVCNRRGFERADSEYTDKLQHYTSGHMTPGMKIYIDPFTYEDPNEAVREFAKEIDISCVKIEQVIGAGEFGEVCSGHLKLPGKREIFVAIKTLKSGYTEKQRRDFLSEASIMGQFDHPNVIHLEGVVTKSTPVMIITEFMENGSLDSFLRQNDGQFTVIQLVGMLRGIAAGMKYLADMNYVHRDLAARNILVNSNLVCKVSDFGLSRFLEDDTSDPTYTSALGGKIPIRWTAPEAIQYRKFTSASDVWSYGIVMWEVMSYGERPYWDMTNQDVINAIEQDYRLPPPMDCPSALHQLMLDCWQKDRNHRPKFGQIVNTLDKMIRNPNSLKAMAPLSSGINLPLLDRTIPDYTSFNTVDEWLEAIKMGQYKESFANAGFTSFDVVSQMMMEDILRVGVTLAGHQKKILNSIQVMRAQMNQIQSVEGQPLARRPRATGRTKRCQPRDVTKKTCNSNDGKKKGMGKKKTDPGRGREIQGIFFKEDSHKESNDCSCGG
# assay_remarks: phosphorylation enrichment, bacterial display (enrichment ratio); higher = better substrate or ligand; peptides without Tyr show the background
measured_parameter: phosphorylation enrichment

SSTASYFEAPG [RFX2_Y108] = 0.487

// query Given YSIAQYCCRMG [LRRK2_Y2023_G2019S] , state its recorded phosphorylation enrichment.
// result 12

// query Please give the result for LPVHFYSHVEH [PYGM_Y204_G205S] too.
// result 0.878

###

# Tested on: c-Src
# assay_remarks: phosphorylation enrichment, bacterial display (enrichment ratio); higher = better substrate or ligand; peptides without Tyr show the background
measured_parameter: phosphorylation enrichment
// print number alone

GSQERDFELVE [TSC2_Y407_Y407D] = 0.523
RHFTGCRIELQ [INSR_Y818_Y818C] = 0.508
YECKWYIPLTD [BCR_Y756_D752E] = 0.576
EKKKFYDAKIE [CASP5_Y104_T106A_YF] = 0.466

// query Provide the documented phosphorylation enrichment with c-Src as the system for YSPYDYQPCLA [TNS1_Y798]
// result 3.49

// query Now the same for DTQNSYRCATS [TSC1_Y304_G305R]
// result 0.449

// query Do the same for KRIETYFSKNY [PLP1_Y50_L46R] please
// result 0.384

// query One more sequence: TLEKFYFAFPG [SLC1A1_Y51]
// result 3.75

// query Entry to check: RRAKGYPINLY [ITGB2_Y125_D128N]
// result 0.7

// query Query IFLENYNAGTF [CFI_Y421_H418L_YF] next
// result 0.491

###

Measured phosphorylation enrichment by item
# target_desc: MERTK (UniProt Q12866)
# Sequence (Q12866 whole entry, looked up): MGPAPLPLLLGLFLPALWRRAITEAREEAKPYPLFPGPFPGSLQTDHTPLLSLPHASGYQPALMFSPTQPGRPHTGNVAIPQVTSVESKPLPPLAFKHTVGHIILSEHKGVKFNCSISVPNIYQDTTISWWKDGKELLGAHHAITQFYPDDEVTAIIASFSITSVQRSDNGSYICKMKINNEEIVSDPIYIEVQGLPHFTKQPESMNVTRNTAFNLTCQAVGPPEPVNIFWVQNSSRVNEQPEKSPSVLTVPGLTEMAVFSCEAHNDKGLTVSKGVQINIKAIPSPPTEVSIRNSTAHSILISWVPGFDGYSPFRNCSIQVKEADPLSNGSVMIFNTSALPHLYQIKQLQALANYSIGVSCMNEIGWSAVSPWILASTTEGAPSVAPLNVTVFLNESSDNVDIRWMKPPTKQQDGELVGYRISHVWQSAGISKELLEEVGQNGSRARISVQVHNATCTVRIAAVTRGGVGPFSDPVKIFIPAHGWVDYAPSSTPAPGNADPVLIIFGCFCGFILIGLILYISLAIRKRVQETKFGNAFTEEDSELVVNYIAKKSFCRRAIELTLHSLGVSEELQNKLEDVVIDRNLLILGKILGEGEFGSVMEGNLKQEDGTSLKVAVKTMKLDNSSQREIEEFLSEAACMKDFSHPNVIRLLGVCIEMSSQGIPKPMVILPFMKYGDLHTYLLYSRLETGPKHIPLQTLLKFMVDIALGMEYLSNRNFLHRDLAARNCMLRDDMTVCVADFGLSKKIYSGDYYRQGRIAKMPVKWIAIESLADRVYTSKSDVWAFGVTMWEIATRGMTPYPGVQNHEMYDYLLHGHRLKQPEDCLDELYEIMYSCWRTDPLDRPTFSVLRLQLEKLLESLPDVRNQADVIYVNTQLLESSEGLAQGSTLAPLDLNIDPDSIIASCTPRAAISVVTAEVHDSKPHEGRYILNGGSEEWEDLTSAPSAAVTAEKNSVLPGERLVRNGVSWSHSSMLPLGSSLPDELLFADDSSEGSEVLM
# assay_remarks: phosphorylation enrichment, bacterial display (enrichment ratio); higher = better substrate or ligand; peptides without Tyr show the background
Field format: numeric only.

A selection of reference data follows.
GDAMLYYPSVS [GPR143_Y177_A173D] = 4.84
SIRYNYLLDVL [FGFR4_Y237] = 0.509
WFPANYVKLLN [ITSN1_Y1132_S1137N] = 0.587

With those in mind, consider the next sequence.
// query Which phosphorylation enrichment is listed for DFGSGYPNDPK [RNASEH2A_Y210_YF] ?
// result 0.424

Where do these numbers come from? They come from the supplement of paper PMC10065799.
